# target-or-test-system: T1, RBM5 RRM1-ZnF1 R198E (human, UniProt P52756 94-210, R198E)
# T1 sequence: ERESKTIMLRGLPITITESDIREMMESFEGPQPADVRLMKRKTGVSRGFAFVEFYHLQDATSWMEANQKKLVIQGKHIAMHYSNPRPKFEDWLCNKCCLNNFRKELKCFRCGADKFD
# method: ITC; ITC: 20 mM MES pH 6.5, 100 mM NaCl, 2 mM BME, 25 C; NMR: 20 mM MES pH 6.5, 100 mM (single RRMs) or 400 mM (multidomain) NaCl, 1 mM DTT, 298 K
# assay-conditions: protein: recombinant
measured-property: pKd
pKd is a log-scale quantity: -log10 of the concentration expressed in molar.

pKd lookup needed for UGGCUCUUCUCU (ssRNA) [GGCU_12] , thanks.
5.57
